For each record, write down the corresponding IC50.
# Assay Overview: Cytotoxicity against human U937 cells assessed as reduction in cell viability after 24 hrs by MTT assay
# Assay type: functional, cell-based
# Experimental Setup: U-937, 24 h

In: Dear colleague, please send me the reported IC50 for Nc1nn(Cc2cn(-c3ccc([N+](=O)[O-])cc3)nn2)c2nc(-c3ccccc3)cc(C(F)(F)F)c12 when you can.
Out: 98.8 µg/mL

In: Return IC50 (reported value) for this compound: Cc1c(Br)cccc1-n1cc(Cn2nc(N)c3c(C(F)(F)F)cc(-c4ccccc4)nc32)nn1
Out: 97.2 µg/mL

In: Hello, please tell me recorded IC50 for this one: Nc1nn(Cc2cn(CC(=O)NC3CCCCC3)nn2)c2nc(-c3ccccc3)cc(C(F)(F)F)c12
Out: 89 µg/mL

In: // Input: Nc1nn(Cc2cn(CC(=O)Nc3ccc(F)cc3Br)nn2)c2nc(-c3ccccc3)cc(C(F)(F)F)c12 . Output its IC50 only.
Out: 98.3 µg/mL
